TESTED_TARGET: recombinant murine VEGF164 (mouse) (UniProt Q00731)
ASSAY_NOTES: Biacore SPR, VEGF immobilized, pH 5
ENDPOINT: Kd (nM)
Provide the reading as a plain figure in nM.

Examples with answers:
Form field Kd, entry 578minmax FW1.4_DHP (scFv, tied by name only) scFv: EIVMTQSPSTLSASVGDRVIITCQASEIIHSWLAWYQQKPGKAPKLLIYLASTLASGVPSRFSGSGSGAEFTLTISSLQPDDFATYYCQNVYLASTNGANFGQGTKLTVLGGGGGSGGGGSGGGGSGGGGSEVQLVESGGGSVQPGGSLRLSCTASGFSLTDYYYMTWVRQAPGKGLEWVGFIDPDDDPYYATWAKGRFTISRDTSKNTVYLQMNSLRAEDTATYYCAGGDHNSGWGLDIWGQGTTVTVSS : 0.608

Form field Kd, entry 578min_max T84N_V89L (scFv, the VH entry already carries T84N and V89L; tied by name; also called Protein No. 1008) scFv: EIVMTQSPSTLSASVGDRVIITCQASEIIHSWLAWYQQKPGKAPKLLIYLASTLASGVPSRFSGSGSGAEFTLTISSLQPDDFATYYCQNVYLASTNGANFGQGTKLTVLGGGGGSGGGGSGGGGSGGGGSEVQLVESGGGLVQPGGSLRLSCTASGFSLTDYYYMTWVRQAPGKGLEWVGFIDPDDDPYYATWAKGRFTISRDNSKNTLYLQMNSLRAEDTAVYYCAGGDHNSGWGLDIWGQGTLVTVSS : 1.53

Form field Kd, entry 578min_max T84N_V89L_DHP (scFv) scFv: EIVMTQSPSTLSASVGDRVIITCQASEIIHSWLAWYQQKPGKAPKLLIYLASTLASGVPSRFSGSGSGAEFTLTISSLQPDDFATYYCQNVYLASTNGANFGQGTKLTVLGGGGGSGGGGSGGGGSGGGGSEVQLVESGGGSVQPGGSLRLSCTASGFSLTDYYYMTWVRQAPGKGLEWVGFIDPDDDPYYATWAKGRFTISRDNSKNTLYLQMNSLRAEDTATYYCAGGDHNSGWGLDIWGQGTTVTVSS : 1.46

In the following, a different binder is considered.
Form field Kd, entry 578minmax (scFv, also called ESBA903; 903) scFv: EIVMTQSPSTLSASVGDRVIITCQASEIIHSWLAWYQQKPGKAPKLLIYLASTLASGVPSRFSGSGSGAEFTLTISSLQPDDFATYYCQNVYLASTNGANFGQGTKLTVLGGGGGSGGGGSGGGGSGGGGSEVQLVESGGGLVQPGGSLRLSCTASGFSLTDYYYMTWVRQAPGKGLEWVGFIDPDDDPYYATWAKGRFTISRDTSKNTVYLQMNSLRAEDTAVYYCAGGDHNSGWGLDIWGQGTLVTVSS : 0.567

The origin of these recorded values is patent US20150274820A1.
